Tested on: IgE antibodies from patients
testSummary: Wheat epitope mapping (2): overlapping 10-amino-acid peptide fragments shifted by one amino acid
Type: binding, human
recordedConditions: serum of patient P17 (WDEIA); partial sequence
propertyLabel: Epitope sequence binding to IgE antibody, rank of the sequence

In [3]: df
Out[3]:
                                  substance  endpointresult
0  2680 (YKGPTL; REGION 1..6: note = epitope) [compound 2680]             Key
1  2714 (GIGTVPVGRV; REGION 1..10: note = epitope) [compound 2714]             Key
2  2713 (KIGG; REGION 1..4: note = epitope) [compound 2713]             Key

----------
System: IgE antibodies from patients
testSummary: Wheat epitope mapping (2): overlapping 10-amino-acid peptide fragments shifted by one amino acid
Assay type: binding, human
recordedConditions: serum of patient P8 (WDEIA); sequence without X
propertyLabel: Epitope sequence binding to IgE antibody, rank of the sequence

>>> print(df.to_string())
                                  substance            experimentalsystem  endpointresult
0  1177 (QQFPPQ; REGION 1..6: note = epitope) [compound 1177]  IgE antibodies from patients             Key
1  1417 (QQPISQQQAQ; REGION 1..10: note = epitope) [compound 1417]  IgE antibodies from patients             Key
2  1416 (YLQPQQPIS; REGION 1..9: note = epitope) [compound 1416]  IgE antibodies from patients             Key
3  1307 (NVEN; REGION 1..4: note = epitope) [compound 1307]  IgE antibodies from patients             Key

----------
Test system: IgE antibodies from patients
testSummary: Wheat epitope mapping (2): overlapping 10-amino-acid peptide fragments shifted by one amino acid;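 for Rank of partial sequence as epitope binding to IgE antibody: key = sequence deemed particularly important within the common 15-residue sequence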
Format: binding, human
recordedConditions: serum of patient P14 (WDEIA); sequence without X
propertyLabel: Rank of partial sequence as epitope binding to IgE antibody

>>> print(df.to_string())
                                  substance  endpointresult
0  1532 (QVPLVQQQ; REGION 1..8: note = epitope) [compound 1532]      Preferably
1  1688 (KEAA; REGION 1..4: note = epitope) [compound 1688]             Key
2  1428 (YLQPQQPIS; REGION 1..9: note = epitope) [compound 1428]      Preferably
3  1534 (QQQQFLG; REGION 1..7: note = epitope) [compound 1534]      Preferably
4  1689 (SQVIIM; REGION 1..6: note = epitope) [compound 1689]             Key
5  1429 (YLQPQQ; REGION 1..6: note = epitope) [compound 1429]             Key

----------
System: IgE antibodies from patients
testSummary: Wheat epitope mapping (2): overlapping 10-amino-acid peptide fragments shifted by one amino acid
Type: binding, human
recordedConditions: serum of patient P10 (WDEIA); sequence without X
propertyLabel: Epitope sequence binding to IgE antibody, rank of the sequence

>>> print(df.to_string())
                                  substance  endpointresult
0  1311 (NVEN; REGION 1..4: note = epitope) [compound 1311]             Key
1  1380 (PWQQQPLPPQ; REGION 1..10: note = epitope) [compound 1380]             Key
2  1423 (YLQPQ; REGION 1..5: note = epitope) [compound 1423]             Key
3  1223 (IQQQP; REGION 1..5: note = epitope) [compound 1223]             Key
4  1221 (PIQQQPQPF; REGION 1..9: note = epitope) [compound 1221]      Preferably
5  1422 (YLQPQQ; REGION 1..6: note = epitope) [compound 1422]      Preferably
6  1424 (SQQQA; REGION 1..5: note = epitope) [compound 1424]             Key

----------
System: IgE antibodies from patients
testSummary: Wheat epitope mapping (2): overlapping 10-amino-acid peptide fragments shifted by one amino acid
Type: binding, human
recordedConditions: serum of patient P20 (WDEIA); partial sequence
propertyLabel: Epitope sequence binding to IgE antibody, rank of the sequence

>>> print(df.to_string())
                                  substance  endpointresult
0  2507 (SQVSF; REGION 1..5: note = epitope) [compound 2507]             Key
1  2554 (LQQSTYQLVQ; REGION 1..10: note = epitope) [compound 2554]             Key
2  2555 (QSTYQLVQQL; REGION 1..10: note = epitope) [compound 2555]             Key
3  2506 (SSQVSFQPSQ; REGION 1..10: note = epitope) [compound 2506]      Preferably
4  2643 (KEAAEMN; REGION 1..7: note = epitope) [compound 2643]      Preferably
5  2556 (QLVQQLCC; REGION 1..8: note = epitope) [compound 2556]             Key

----------
Test system: IgE antibodies from patients
testSummary: Wheat epitope mapping (2): overlapping 10-amino-acid peptide fragments shifted by one amino acid
Format: binding, human
recordedConditions: serum of patient P28 (WDEIA); partial sequence
propertyLabel: Epitope sequence binding to IgE antibody, rank of the sequence

                                  substance  endpointresult
0  2574 (QLVQQL; REGION 1..6: note = epitope) [compound 2574]      Preferably
1  2730 (YKIGGIGTV; REGION 1..9: note = epitope) [compound 2730]      Preferably
2  2731 (YKIGGI; REGION 1..6: note = epitope) [compound 2731]             Key
3  2575 (QLVQ; REGION 1..4: note = epitope) [compound 2575]             Key

----------
Tested on: IgE antibodies from patients
testSummary: Wheat epitope mapping (2): overlapping 10-amino-acid peptide fragments shifted by one amino acid
Assay type: binding, human
recordedConditions: serum of patient P26 (WDEIA); sequence without X
propertyLabel: Epitope sequence binding to IgE antibody, rank of the sequence

In [3]: df
Out[3]:
                                  substance  endpointresult
0  1241 (PIQQQP; REGION 1..6: note = epitope) [compound 1241]             Key
1  1336 (NVEN; REGION 1..4: note = epitope) [compound 1336]             Key
2  1243 (PQQPP; REGION 1..5: note = epitope) [compound 1243]             Key

----------
Test system: IgE antibodies from patients
testSummary: Wheat epitope mapping (2): overlapping 10-amino-acid peptide fragments shifted by one amino acid;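 for Rank of partial sequence as epitope binding to IgE antibody: key = sequence deemed particularly important within the common 15-residue sequence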
Type: binding, human
recordedConditions: serum of patient P50 (child, general immediate type allergy to wheat); sequence without X
propertyLabel: Rank of partial sequence as epitope binding to IgE antibody

>>> df
                                  substance  endpointresult
0  1558 (PLVQQQQF; REGION 1..8: note = epitope) [compound 1558]      Preferably
1  1651 (NPDKVP; REGION 1..6: note = epitope) [compound 1651]             Key
2  1591 (QPFPQTQQP; REGION 1..9: note = epitope) [compound 1591]             Key
3  1590 (QPFPQTQQPQ; REGION 1..10: note = epitope) [compound 1590]      Preferably
4  1560 (QQQFLGQQ; REGION 1..8: note = epitope) [compound 1560]             Key
5  1650 (YNPDKVPF; REGION 1..8: note = epitope) [compound 1650]      Preferably

----------
Tested on: IgE antibodies from patients
testSummary: Wheat epitope mapping (2): overlapping 10-amino-acid peptide fragments shifted by one amino acid;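 for epitope sequence binding to IgE antibody, rank (Key/Preferably/More preferably): key of grades: preferably = shorter partial sequence still acting as epitope; more preferably = sequence improving IgE binding; key = particularly important sequence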
Assay type: binding, human
recordedConditions: serum of patient G5 (adult, general immediate type allergy to wheat)
propertyLabel: epitope sequence binding to IgE antibody, rank (Key/Preferably/More preferably)

In [3]: df
Out[3]:
                                  substance  endpointresult
0  1747 (EAANFT; REGION 1..6: note = epitope) [compound 1747]             Key
1  1746 (EAANFTS; REGION 1..7: note = epitope) [compound 1746]      Preferably
2  1784 (LKKVGYNP; REGION 1..8: note = epitope) [compound 1784]             Key
3  1888 (TVRTLQRT; REGION 1..8: note = epitope) [compound 1888]             Key
4  1887 (YTVRTLQRTV; REGION 1..10: note = epitope) [compound 1887]      Preferably
